src = patent US12297194B2

Biological target: Ba/F3 EGFR Del19/T790M/C797S mutants (Homo sapiens, UniProt P00533, T790M/C797S, cells depend on it, form not given)
Sequence (P00533 with tags, fused parts or gaps DEL746-750/T790M/C797S, form open): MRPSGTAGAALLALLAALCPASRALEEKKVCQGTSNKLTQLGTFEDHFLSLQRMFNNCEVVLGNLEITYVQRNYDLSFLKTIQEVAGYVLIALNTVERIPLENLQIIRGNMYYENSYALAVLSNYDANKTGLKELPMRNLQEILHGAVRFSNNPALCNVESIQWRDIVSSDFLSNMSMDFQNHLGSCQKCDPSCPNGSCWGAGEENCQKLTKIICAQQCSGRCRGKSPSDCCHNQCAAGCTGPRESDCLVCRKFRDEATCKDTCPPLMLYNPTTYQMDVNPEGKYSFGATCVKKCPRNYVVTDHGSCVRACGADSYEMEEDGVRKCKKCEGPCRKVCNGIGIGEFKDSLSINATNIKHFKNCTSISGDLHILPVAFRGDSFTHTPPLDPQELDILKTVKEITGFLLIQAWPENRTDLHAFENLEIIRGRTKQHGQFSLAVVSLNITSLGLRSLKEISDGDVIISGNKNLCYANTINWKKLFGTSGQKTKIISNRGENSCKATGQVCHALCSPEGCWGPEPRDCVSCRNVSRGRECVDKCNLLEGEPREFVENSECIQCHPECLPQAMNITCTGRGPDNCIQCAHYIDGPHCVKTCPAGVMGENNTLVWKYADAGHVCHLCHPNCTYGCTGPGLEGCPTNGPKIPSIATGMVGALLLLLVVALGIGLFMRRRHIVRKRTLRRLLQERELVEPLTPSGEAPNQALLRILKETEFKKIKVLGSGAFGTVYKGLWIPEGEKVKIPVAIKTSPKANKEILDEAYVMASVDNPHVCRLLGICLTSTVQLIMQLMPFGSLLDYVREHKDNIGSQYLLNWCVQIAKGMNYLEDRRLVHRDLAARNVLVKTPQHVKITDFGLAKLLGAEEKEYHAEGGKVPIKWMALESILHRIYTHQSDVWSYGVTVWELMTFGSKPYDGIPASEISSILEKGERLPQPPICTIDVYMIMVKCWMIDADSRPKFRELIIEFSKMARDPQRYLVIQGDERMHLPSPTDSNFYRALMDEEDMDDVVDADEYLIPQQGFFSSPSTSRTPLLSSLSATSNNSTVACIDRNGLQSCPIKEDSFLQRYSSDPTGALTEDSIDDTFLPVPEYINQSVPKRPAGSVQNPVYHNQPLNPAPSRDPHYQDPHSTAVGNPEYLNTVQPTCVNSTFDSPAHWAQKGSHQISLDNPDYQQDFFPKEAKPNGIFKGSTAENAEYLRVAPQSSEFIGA
Experiment: CellTiter-Glo cell viability, Ba/F3 EGFR Del19/T790M/C797S cells
Type: cell-based, murine
Conditions: 72 hours, read-out: Ba/F3 EGFR mutant cell (IC50, nM) D/T/C
endpoint: log10(GI50) (log10 of the value in nM)
Remember, log10 of GI50, in nM.

Answered cases to consult:
compound="COc1cc(N2CCNCC2)ccc1Nc1ncc(Cl)c(Nc2cccc(OC)c2NS(C)(=O)=O)n1 [Example C6]" endpoint=log10(GI50) value_reported=2.35
compound="CCc1cc(Nc2ncc(Cl)c(Nc3ccc4nccnc4c3NS(C)(=O)=O)n2)c(OC)cc1N1CCC(N2CCOCC2)CC1 [Example A29]" endpoint=log10(GI50) value_reported=1.84
compound="CCc1cc(Nc2ncc(Cl)c(Nc3ccc4nccnc4c3NS(C)(=O)=O)n2)c(OC)cc1N1CC2CCC1CN2C(C)C (centres unmarked) [Example B25]" endpoint=log10(GI50) value_reported=1.34
compound="COc1cc(N2CCC(N3CCN(C)CC3)CC2)c(F)cc1Nc1ncc(Br)c(Nc2ccc3nccnc3c2NS(C)(=O)=O)n1 [Example A27]" endpoint=log10(GI50) value_reported=2.28
compound="CCS(=O)(=O)Nc1cc(OC)ccc1Nc1nc(Nc2cc(C)c(N3CCC(N4CCN(C)CC4)CC3)cc2OC)ncc1Cl [Example C17]" endpoint=log10(GI50) value_reported=1.15
compound="COc1cc(N2CCC(N3CCN(C)CC3)CC2)c(C)cc1Nc1ncc(Br)c(Nc2ccc3nccnc3c2NS(=O)(=O)C2CC2)n1 [Example A19]" endpoint=log10(GI50) value_reported=1.38
compound="CCc1cc(Nc2ncc(Br)c(Nc3ccc4nccnc4c3N(C)S(C)(=O)=O)n2)c(OC)cc1N1CCN(C2CCN(C)CC2)CC1 [Example A49]" endpoint=log10(GI50) value_reported=0.60
compound="CCc1cc(Nc2ncc(F)c(Nc3ccc4nccnc4c3NS(C)(=O)=O)n2)c(OC)cc1N1CCC(N2CCN(C)CC2)CC1 [Example A9]" endpoint=log10(GI50) value_reported=1.79
compound="CCc1cc(Nc2ncc(Br)c(Nc3ccc4nccnc4c3N(C)S(C)(=O)=O)n2)c(OC(C)C)cc1C1CCN(C)CC1 [Example B32]" endpoint=log10(GI50) value_reported=1.46
compound="COc1cc(C2CCNCC2)c(F)cc1Nc1ncc(Cl)c(Nc2ccc3nccnc3c2NS(C)(=O)=O)n1 [Example B21]" endpoint=log10(GI50) value_reported=2.65

For each of the compounds below, note its log10(GI50).
1. COc1cc(C2CCN(C)CC2)ccc1Nc1ncc(Cl)c(Nc2ccc3nccnc3c2NS(C)(=O)=O)n1 [Example B23]
2. COc1cc(N2CCC(N(C)C)CC2)c(C)cc1Nc1ncc(Br)c(Nc2cccc(OC)c2NS(C)(=O)=O)n1 [Example C3]
3. COc1cc(C2CCNCC2)ccc1Nc1ncc(C2CC2)c(Nc2ccc3nccnc3c2NS(C)(=O)=O)n1 [Example B20]
4. COc1cc(N2CCC(N3CCN(C)CC3)CC2)c(C)cc1Nc1ncc(Br)c(Nc2cccc(OC)c2NS(C)(=O)=O)n1 [Example C1]

[2.05, 1.96, 2.88, 1.11]
